- SYSTEM UNDER TEST: T1, sIL-6R (soluble IL-6 receptor; SBH Sciences) (human, UniProt P08887 20-365)
- T1 construct: also called human IL-6R
- T1 sequence: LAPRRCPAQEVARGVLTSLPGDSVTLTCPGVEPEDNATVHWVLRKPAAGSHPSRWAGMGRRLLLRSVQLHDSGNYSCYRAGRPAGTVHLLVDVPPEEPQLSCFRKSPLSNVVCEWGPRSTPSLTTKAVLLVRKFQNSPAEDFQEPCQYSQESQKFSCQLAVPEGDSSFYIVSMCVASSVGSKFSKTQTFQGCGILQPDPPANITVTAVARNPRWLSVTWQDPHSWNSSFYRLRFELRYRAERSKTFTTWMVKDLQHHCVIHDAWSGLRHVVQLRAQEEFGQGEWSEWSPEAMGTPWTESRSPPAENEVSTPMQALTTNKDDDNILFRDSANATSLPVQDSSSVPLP
- TEST DESCRIPTION: SPR (BIAcore 3000), antibody on chip, sIL-6R analyte, 25 C
READOUT KIND: Relative Affinity

See these solved cases before continuing.
45# (antibody, human IgG1, kappa, V domains shown, also called Sample # 45) VH: QVQLQESGPGLVRPSQTLSLTCTVSGYSITSDHAWSWVRQPPGRGLEWIGYISYSGITTYNPSLKSRVTMLRDTSKNQFSLRLSSVTAADTAVYYCARTLARTTAMDYWGQGSLVTVSS VL: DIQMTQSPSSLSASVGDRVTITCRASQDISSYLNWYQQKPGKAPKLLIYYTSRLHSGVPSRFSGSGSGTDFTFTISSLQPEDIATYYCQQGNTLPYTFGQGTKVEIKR ... 2.8 fold vs 25 (Tocilizumab)
35# (antibody, human IgG1, kappa, V domains shown, also called Sample # 35) VH: QVQLQESGPGLVRPSQTLSLTCTVSGYSITSDHAWSWVRQPPGRGLEWIGYISYSGITTYNPSLKSRVTMLRDTSKNQFSLRLSSVTAADTAVYYCARSLARMTAMDYWGQGSLVTVSS VL: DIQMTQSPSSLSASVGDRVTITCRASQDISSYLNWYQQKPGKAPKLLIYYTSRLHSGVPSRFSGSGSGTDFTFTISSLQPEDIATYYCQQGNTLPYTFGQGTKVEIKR ... 2.6 fold vs 25 (Tocilizumab)

# next binder below
# Relative Affinity (binder: 11# (antibody, human IgG1, kappa, V domains shown, also called Sample # 11) VH: QVQLQESGPGLVRPSQTLSLTCTVSGYSITSDHAWSWVRQPPGRGLEWIGFISYSGITTYNPSLKSRVTMLRDTSKNQFSLRLSSVTAADTAVYYCARSLARATAMDYWGQGSLVTVSS VL: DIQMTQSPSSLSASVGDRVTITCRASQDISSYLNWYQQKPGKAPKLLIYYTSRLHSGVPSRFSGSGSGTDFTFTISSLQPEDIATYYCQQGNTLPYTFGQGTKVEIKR ) is 15.3 fold vs 25 (Tocilizumab)

Source of measurements: patent US20190315854A1
